// provenance: ChEMBL document CHEMBL5291721

Listed compounds paired with reported AC50
target: UniProt:Q12809; type: functional; conditions: read-out: AC50; further: assay procedure not described here
Sequence (Q12809 whole entry): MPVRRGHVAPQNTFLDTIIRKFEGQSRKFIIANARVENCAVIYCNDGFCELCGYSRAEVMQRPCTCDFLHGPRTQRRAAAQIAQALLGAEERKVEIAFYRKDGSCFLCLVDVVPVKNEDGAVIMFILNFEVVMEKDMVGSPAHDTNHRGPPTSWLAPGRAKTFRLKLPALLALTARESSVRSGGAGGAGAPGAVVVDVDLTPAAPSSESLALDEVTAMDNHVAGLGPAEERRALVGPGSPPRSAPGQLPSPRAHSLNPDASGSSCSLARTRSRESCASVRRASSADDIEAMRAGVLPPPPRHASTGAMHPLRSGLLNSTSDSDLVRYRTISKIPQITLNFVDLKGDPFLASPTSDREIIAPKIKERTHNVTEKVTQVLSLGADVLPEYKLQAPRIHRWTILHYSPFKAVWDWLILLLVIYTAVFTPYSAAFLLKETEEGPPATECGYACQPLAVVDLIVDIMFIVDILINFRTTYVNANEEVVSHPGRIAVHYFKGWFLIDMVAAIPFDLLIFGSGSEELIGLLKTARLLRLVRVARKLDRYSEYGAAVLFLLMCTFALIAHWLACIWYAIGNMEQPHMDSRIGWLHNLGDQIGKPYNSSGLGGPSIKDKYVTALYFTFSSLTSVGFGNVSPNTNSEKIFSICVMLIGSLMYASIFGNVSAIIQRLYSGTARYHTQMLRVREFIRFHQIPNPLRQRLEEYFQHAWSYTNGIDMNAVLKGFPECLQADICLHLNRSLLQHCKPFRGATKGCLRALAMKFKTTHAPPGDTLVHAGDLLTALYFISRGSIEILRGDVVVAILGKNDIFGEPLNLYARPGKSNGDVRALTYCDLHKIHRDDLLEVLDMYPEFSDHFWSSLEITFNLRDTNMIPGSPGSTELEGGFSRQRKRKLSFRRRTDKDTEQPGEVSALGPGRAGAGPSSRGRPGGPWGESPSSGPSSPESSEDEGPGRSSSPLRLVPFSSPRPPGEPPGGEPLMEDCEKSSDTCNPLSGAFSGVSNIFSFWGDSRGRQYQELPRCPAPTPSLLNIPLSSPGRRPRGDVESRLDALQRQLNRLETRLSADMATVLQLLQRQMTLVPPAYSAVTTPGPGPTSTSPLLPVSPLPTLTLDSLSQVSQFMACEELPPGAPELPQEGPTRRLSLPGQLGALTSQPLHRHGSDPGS

CCN(CC)CCc1nc(-c2ccccc2)no1 [OXOLAMINE]    > 30 µM
CO[C@@H]1[C@@H](O[C@@H]2O[C@H](C)[C@@H](O[C@H]3C[C@@](C)(O)[C@@H](OC(=O)CC(C)C)[C@H](C)O3)[C@H](N(C)C)[C@H]2O)[C@@H](CC=O)C[C@@H](C)[C@@H](O)/C=C/C=C/C[C@@H](C)OC(=O)C[C@H]1OC(C)=O [JOSAMYCIN]    > 30 µM
CNC1Cc2ccccc2N(C)c2ccccc21 (stereo unspecified) [METAPRAMINE]    5.9 µM
CN1C(=O)CCS(=O)(=O)C1c1ccc(Cl)cc1 (stereo unspecified) [CHLORMEZANONE]    > 30 µM
CCc1c(Cl)c(O)c(Cl)c(O)c1C(=O)O[C@H]1[C@H](O)[C@H](OC)[C@H](OC/C2=C\C=C\C[C@H](O)/C(C)=C/[C@H](CC)[C@@H](O[C@@H]3OC(C)(C)[C@@H](OC(=O)C(C)C)[C@H](O)[C@@H]3O)/C(C)=C/C(C)=C/C[C@@H]([C@@H](C)O)OC2=O)O[C@@H]1C [FIDAXOMICIN]    > 30 µM
C#C[C@]1(O)CC[C@H]2[C@@H]3[C@H](C)CC4=C(CCC(=O)C4)[C@H]3CC[C@@]21C [TIBOLONE]    > 30 µM
O=C1C(O)=C([C@H]2CC[C@H](c3ccc(Cl)cc3)CC2)C(=O)c2ccccc21 [ATOVAQUONE]    > 30 µM
CS(=O)(=O)c1ccc(C2=C(c3ccccc3)C(=O)OC2)cc1 [ROFECOXIB]    > 30 µM

Field AC50 (entry CCOc1ccccc1OCC1CNCCO1 (stereo unspecified) [VILOXAZINE] ) reads > 30 µM

Field AC50 (entry O=C(O[C@H]1C[C@H]2CC[C@@H](C1)[N+]21CCCC1)C(O)(c1ccccc1)c1ccccc1 [TROSPIUM] ) reads 0.63 µM

Field AC50 (entry CC(Oc1c(Cl)cccc1Cl)C1=NCCN1 (stereo unspecified) [LOFEXIDINE] ) reads 8.86 µM

Field AC50 (entry C#C[C@]1(O)CC[C@H]2[C@@H]3CCC4=Cc5oncc5C[C@]4(C)[C@H]3CC[C@@]21C [DANAZOL] ) reads > 30 µM

Field AC50 (entry COC(c1ccccc1)(c1ccccc1)[C@H](Oc1nc(C)cc(C)n1)C(=O)O [AMBRISENTAN] ) reads > 30 µM

Field AC50 (entry Cc1ccc(S(=O)(=O)NC(=O)NN2CC3CCCC3C2)cc1 (stereo unspecified) [GLICLAZIDE] ) reads > 30 µM

Field AC50 (entry Nc1nc(NC2CC2)c2ncn([C@H]3C=C[C@@H](CO)C3)c2n1 [ABACAVIR] ) reads > 30 µM

Field AC50 (entry CC(C)Nc1ncccn1 [ISAXONINE] ) reads > 30 µM
